I'd appreciate it if you could supply Survival values for the items below.
Test system: P388 mouse leukemia cells
test protocol: Antitumor effect on P388 mouse leukemia tumor in ICR mice
Format: in vivo
cond: 5 mg/kg/day, i.p., 5 days
One number for each entry, in days.

Worked examples, 3 compounds total:
> print(dat)
                                   compound  display.unit  numeric.result
1  O=C1C=CC(O)(CCCCOc2ccccc2)C1=C/C=C/C(O)CCCO (stereo not shown)          days            13.0
2  CCCCCCCC[C@@]1(O)C=CC(=O)/C1=C/CCCCCC(=O)OC          days            10.3
3  COC(=O)CCCCCC(O)C1C(=O)C(Cl)=CC1(O)CCCc1ccc(OC)c(OC)c1 (stereo not shown)          days            11.0

Given the entry `CCCCCCCC[C@@]1(O)C=CC(=O)/C1=C\CCCCCC(=O)OC` , what Survival was observed with P388 mouse leukemia cells? 10.7
